assay-system: Human Full Length PARG (Homo sapiens (Human), UniProt Q86W56)
Sequence (Q86W56 whole entry): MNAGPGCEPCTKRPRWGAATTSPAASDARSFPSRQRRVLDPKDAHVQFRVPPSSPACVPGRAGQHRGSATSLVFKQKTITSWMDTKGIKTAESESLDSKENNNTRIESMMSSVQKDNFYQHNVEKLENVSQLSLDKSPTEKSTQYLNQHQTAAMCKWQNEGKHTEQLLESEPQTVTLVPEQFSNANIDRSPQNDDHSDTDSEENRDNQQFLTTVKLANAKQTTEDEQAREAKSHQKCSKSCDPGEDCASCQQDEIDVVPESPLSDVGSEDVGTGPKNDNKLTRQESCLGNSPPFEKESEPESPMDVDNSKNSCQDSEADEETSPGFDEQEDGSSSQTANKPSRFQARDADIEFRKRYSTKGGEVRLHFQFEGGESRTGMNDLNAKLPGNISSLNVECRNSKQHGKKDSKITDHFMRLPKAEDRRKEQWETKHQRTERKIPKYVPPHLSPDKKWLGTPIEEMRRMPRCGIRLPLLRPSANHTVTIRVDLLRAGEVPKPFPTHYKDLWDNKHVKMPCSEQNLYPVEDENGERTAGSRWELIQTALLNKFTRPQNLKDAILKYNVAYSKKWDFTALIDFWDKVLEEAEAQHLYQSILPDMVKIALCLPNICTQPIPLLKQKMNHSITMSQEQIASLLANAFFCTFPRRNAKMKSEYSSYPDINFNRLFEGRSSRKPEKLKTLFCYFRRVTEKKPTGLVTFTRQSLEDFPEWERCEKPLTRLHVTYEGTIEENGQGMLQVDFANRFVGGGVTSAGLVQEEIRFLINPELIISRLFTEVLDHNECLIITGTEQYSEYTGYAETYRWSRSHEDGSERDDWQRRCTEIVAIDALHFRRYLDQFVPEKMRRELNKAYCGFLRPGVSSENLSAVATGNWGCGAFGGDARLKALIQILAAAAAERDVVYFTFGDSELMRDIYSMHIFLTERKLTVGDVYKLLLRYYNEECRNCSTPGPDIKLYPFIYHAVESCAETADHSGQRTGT
assay-overview: PARG enzyme assay (TR-FRET)
Format: biochemical
measurement-parameters: read-out: PARG Biochem IC50
measurement-kind: pIC50
Keep in mind that pIC50 stands for -log10 of concentration in molar terms.

compound=C#CC1(NS(=O)(=O)c2ccc3c(c2)c(=O)n(Cc2cnn(C)c2)c(=O)n3C)CC1 measurement_kind=pIC50 result_number=5.27

Memo: Cc1nnc(Cn2c(=O)c3cc(S(=O)(=O)NC4(CF)CC4)ccc3n(CCF)c2=O)s1 , reported pIC50: 7.09

# pIC50 (compound: Cc1cc(Cn2c(=O)c3cc(S(=O)(=O)NC4(C)CC4)ccc3n(Cc3cnn(C(C)C)c3)c2=O)on1 ) is 6.71

For reference, reported pIC50 for Cc1cc(CN2C(=O)c3cccc4cc(S(=O)(=O)NC5(C)CC5)cc(c34)C2=O)on1 stands at 5.98

----------
assay-system: Human Full Length PARG (Homo sapiens (Human))
assay-overview: PARG enzyme assay (TR-FRET)
Type: biochemical
measurement-parameters: read-out: PARG Biochem IC50 Geomean
measurement-kind: pIC50
Friendly reminder that pIC50 comes from taking -log10 of the concentration in mol/L.

For orientation, consider the following solved cases.
compound=Cc1cc(Cn2c(=O)c3cc(S(=O)(=O)NC4(C)CC4)ccc3n(Cc3nc(C)no3)c2=O)on1 measurement_kind=pIC50 result_number=6.41
compound=Cc1cc(Cn2nc(Cl)c3ccc(S(=O)(=O)NC4(C)CC4)cc3c2=O)on1 measurement_kind=pIC50 result_number=5.96
compound=CC(=O)Cn1c(=O)n(Cc2cnn(C)c2)c(=O)c2cc(S(=O)(=O)NC3(C)CC3)ccc21 measurement_kind=pIC50 result_number=6.45
compound=Cn1c(=O)c2cc(S(=O)(=O)NC3(C)CC3)ccc2n(Cc2ccncc2)c1=O measurement_kind=pIC50 result_number=5.63
compound=Cc1cc(Cn2c(=O)n(Cc3cnn(C)c3)c(=O)c3cc(S(=O)(=O)NC4(C)CC4)ccc32)n(C)n1 measurement_kind=pIC50 result_number=7.74
compound=Cc1cc(Cn2cc(C#CCN(C)C)c3ccc(S(=O)(=O)NC4(C)CC4)cc3c2=O)on1 measurement_kind=pIC50 result_number=6.07
compound="Cc1cc(Cn2c(=O)c3cc(S(=O)(=O)NC4(C)CC4)ccc3n(CC3CCCN3C)c2=O)on1 (centres unmarked)" measurement_kind=pIC50 result_number=6.40

I looked up Cc1cc(Cn2c(=O)c3cc(S(=O)(=O)NC4(C)CC4)ccc3n(C)c2=O)n(C)n1 and its pIC50 for Human Full Length PARG (Homo sapiens (Human)) was 5.62

----------
assay-system: UniProt Q86W56
assay-overview: PARG enzyme assay (TR-FRET)
Assay type: biochemical
measurement-parameters: read-out: PARG Biochem IC50 Geomean
measurement-kind: pIC50
Field pIC50 (float): negative decimal logarithm of the concentration in molar.

molecule=Cc1ncc(Cn2c(=O)c3cc(S(=O)(=O)NC4(C)CC4)ccc3n(Cc3sc(C)nc3C)c2=O)s1 assay_system="UniProt Q86W56" result_number=8.40
molecule=Cc1cccc(Cn2c(=O)n(C)c(=O)c3cc(S(=O)(=O)NC4(C)CC4)ccc32)c1 assay_system="UniProt Q86W56" result_number=5.95
molecule=Cn1ccnc1Cn1c(=O)c2cc(S(=O)(=O)NC3(C)CC3)ccc2n(C)c1=O assay_system="UniProt Q86W56" result_number=5.13
molecule=Cc1cc(Cn2c(=O)c3cc(S(=O)(=O)NC4(C)CC4)ccc3n(CCC(N)=O)c2=O)on1 assay_system="UniProt Q86W56" result_number=6.36
molecule="Cn1cc(Cn2c(=O)c3cc(S(=O)(=O)NC4(C)CC4)ccc3n(CC3(C)CC3(F)F)c2=O)cn1 (stereo not shown)" assay_system="UniProt Q86W56" result_number=6.94

For CC(=O)Cn1c(=O)n(Cc2cc(C)no2)c(=O)c2cc(S(=O)(=O)NC3(C)CC3)ccc21 the molecule record lists pIC50 as 6.38

Record summary for CC1CC1Cn1c(=O)n(C)c(=O)c2cc(S(=O)(=O)NC3(C)CC3)ccc21 (stereo not shown) : reported pIC50 = 6.61

Please fill in: pIC50 reported for Cc1nc(C)c(Cn2c(=O)n(Cc3cnn(C)c3)c(=O)c3cc(S(=O)(=O)NC4(C)CC4)ccc32)s1 = 8.22

Kindly note the recorded pIC50 for Cn1cc(Cn2c(=O)[nH]c3ccc(S(=O)(=O)NC4(C#N)CC4)cc3c2=O)cn1 , which is 6.40

// Cc1ncc(Cn2c(OCC3CC3)nc3ccc(S(=O)(=O)NC4(C)CC4)cc3c2=O)s1 : pIC50 value = 6.52

Reported pIC50 of Cc1cc(Cn2c(=O)n(C3CC3)c(=O)c3cc(S(=O)(=O)NC4(C)CC4)ccc32)n(C)n1 : 6.19

The molecule identified as Cc1cc(Cn2c(=O)c3cc(S(=O)(=O)NC4(C)CC4)ccc3n(Cc3cc(C)nn3C)c2=O)on1 registered its pIC50 at 7.42

According to the records, this molecule COCCn1c(=O)n(Cc2cnn(C)c2)c(=O)c2cc(S(=O)(=O)NC3(C#N)CC3)ccc21 displays pIC50 of 6.82

Briefly, pIC50 measured for Cn1c(=O)c2cc(S(=O)(=O)NC3(C)CC3)ccc2n(Cc2ccccc2C(F)(F)F)c1=O : 5.62

pIC50 reported for this molecule Cc1cc(Cn2nc(C#CCN(C)C)c3ccc(S(=O)(=O)NC4(C)CC4)cc3c2=O)on1 : 6.29

The recorded pIC50 for entry Cn1cc(Cn2c(=O)c3cc(S(=O)(=O)NC4(C)CC4)ccc3n(CCC(N)=O)c2=O)cn1 equals 6.54
